# system_name: TDO2 in A172 cancer cells (Homo sapiens, UniProt P48775)
# Construct: endogenous in cells
# Sequence (P48775 whole entry): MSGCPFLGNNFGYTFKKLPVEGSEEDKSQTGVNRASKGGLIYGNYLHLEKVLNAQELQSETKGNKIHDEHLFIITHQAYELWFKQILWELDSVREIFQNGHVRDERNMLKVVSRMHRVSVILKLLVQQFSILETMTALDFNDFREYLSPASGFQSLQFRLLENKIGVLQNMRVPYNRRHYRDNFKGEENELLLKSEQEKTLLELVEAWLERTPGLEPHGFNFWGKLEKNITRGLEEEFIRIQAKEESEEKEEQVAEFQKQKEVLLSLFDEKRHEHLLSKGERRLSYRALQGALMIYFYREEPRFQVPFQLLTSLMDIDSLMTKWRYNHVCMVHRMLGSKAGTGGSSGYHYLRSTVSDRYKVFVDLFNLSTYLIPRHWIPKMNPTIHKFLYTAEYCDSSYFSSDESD
# test_details: TDO2 Cellular Assay (kynurenine production in A172 cancer cells)
# reported_conditions: L-Trp 1 mM, 24 hours incubation, kynurenine at 490 nm
Entries and their IC50 values follow.

-- ask Record request: IC50 value, item O=C(c1ccccc1)N1C[C@@H]2C[C@@](O)(c3cc(Cl)cc4[nH]ncc34)C[C@@H]2C1
-- reply ≤ 0.5 µM

-- ask Recorded IC50 of O=S(=O)(N[C@H]1[C@@H]2C[C@@](O)(c3cc(Cl)cc4cn[nH]c34)C[C@@H]21)c1ccccc1 , please.
-- reply 1 to 5 µM

-- ask # query: IC50 of entry CC1(C)[C@H]2CN(c3c(C(F)(F)F)ccn4cncc34)C[C@H]2CN1S(C)(=O)=O (racemic)
-- reply > 5 µM

-- ask Reported IC50, compound CC(=O)N1C[C@H]2C[C@@H](c3cc(C(F)(F)F)cn4cncc34)C[C@H]2C1 : ____
-- reply > 5 µM

-- ask Please give the measured IC50 for this compound: CC(=O)N1C[C@@H]2CN(c3cc(C(F)(F)F)cn4cncc34)C[C@@H]2C1(C)C (racemic)
-- reply 1 to 5 µM

Hey, just so you know, these numbers are from patent US11548868B2.
